assay: AUC was measured from the graph plotted against blood plasma concentration and time at the dose of 150 uMol/kg,; format: ADME
The reader will find reported AUC values listed item by item below.

| ENTRY SMILES | READING UNIT | AUC |
| --- | --- | --- |
| CC(C)O/N=C(\OC(=O)c1ccc(C(=O)C(C)(C)C)cc1)c1ccc(C(=O)C(C)(C)C)cc1 | µg·h/mL | 94 |
| CC(C)(C)C(=O)c1ccc(C(=O)O/C(=N\OCCO)c2ccc(C(=O)C(C)(C)C)cc2)cc1 | µg·h/mL | 122 |
| CC(C)(C)C(=O)c1ccc(C(=O)O/C(=N\OCC(=O)O)c2ccc(C(=O)C(C)(C)C)cc2)cc1 | µg·h/mL | 1000 |

---

assay: AUC was measured from the graph plotted against blood plasma concentration and time at the dose of 300 uMol/kg; assay type: ADME, cell-free
MEASUREMENT TYPE: AUC (µg·h/mL)

| COMPOUND | MEASUREMENT TYPE | NUMERIC READOUT |
| --- | --- | --- |
| C=CCOC(c1ccc(C(=O)O)cc1)C(C)(C)C (configuration not stated) | AUC | 941 |
| CC(C)(C)C(=O)c1ccc(C(=O)N(C(=O)c2ccc(C(=O)C(C)(C)C)cc2)C(=O)c2cccnc2)cc1 | AUC | 64 |

---

assay: AUC was measured from the graph plotted against blood plasma concentration and time at the dose of 150 uMol/kg
MEASUREMENT TYPE: AUC (µg·h/mL)

| ENTRY SMILES | MEASUREMENT TYPE | NUMERIC READOUT |
| --- | --- | --- |
| Cc1ccc(C2(C(C)(C)C)OCCO2)cc1 | AUC | 1510 |

---

test: AUC was measured from the graph plotted against blood plasma concentration and time at the dose of 700 uMol/kg,; assay type: ADME

| ENTRY SMILES | READING UNIT | AUC |
| --- | --- | --- |
| CO/N=C(\OC(=O)c1ccc(C(=O)C(C)(C)C)cc1)c1ccc(C(=O)C(C)(C)C)cc1 | µg·h/mL | 325 |
| CC(C)(C)C(=O)c1ccc(C(=O)NC(=O)c2ccc(C(=O)C(C)(C)C)cc2)cc1 | µg·h/mL | 2670 |
| CC(C)(C)C(=O)c1ccc(C(=O)NC(=O)c2ccc(F)cc2)cc1 | µg·h/mL | 2570 |
| CC(C)(C)C(=O)c1ccc(C(=O)N[C@@H](Cc2ccccc2)C(=O)O)cc1 | µg·h/mL | 2930 |
| Cc1ccc(C2(C(C)(C)C)OCCO2)cc1 | µg·h/mL | 3560 |

---

test: AUC was measured from the graph plotted against blood plasma concentration and time at the dose of 300 uMol/kg,; assay type: ADME
MEASUREMENT TYPE: AUC (µg·h/mL)

| COMPOUND | NUMERIC READOUT |
| --- | --- |
| COC(c1ccc(C(=O)O)cc1)C(C)(C)C (stereo unspecified) | 1020 |
| CC(C)(C)C(=O)c1ccc(C2=NCCO2)cc1 | 886 |
| C=CCO/N=C(\OC(=O)c1ccc(C(=O)C(C)(C)C)cc1)c1ccc(C(=O)C(C)(C)C)cc1 | 158 |
| CC(C)(C)C1(c2ccc(C(=O)O)cc2)OCCCO1 | 1400 |
| COCCO/N=C(\OC(=O)c1ccc(C(=O)C(C)(C)C)cc1)c1ccc(C(=O)C(C)(C)C)cc1 | 1850 |
| CC(C)(C)O/N=C(\OC(=O)c1ccc(C(=O)C(C)(C)C)cc1)c1ccc(C(=O)C(C)(C)C)cc1 | 55 |

---

assay: AUC was measured from the graph plotted against blood plasma concentration and time at the dose of 300 uMol/kg,; type: ADME
MEASUREMENT TYPE: log10 AUC (log10 of the value in µg·h/mL)

| MOLECULE | log10 AUC |
| --- | --- |
| CC(C)(C)C(=O)c1ccc(C(=O)O/C(=N\OCCCC(=O)O)c2ccc(C(=O)C(C)(C)C)cc2)cc1 | 3.21 |
| CC(C)(C)C(=O)c1ccc(C(=O)NC(=O)c2ccc(F)cc2)cc1 | 2.77 |
| CC1(C)COC(c2ccc(C(=O)O)cc2)(C(C)(C)C)OC1 | 2.42 |
| CC(C)O/N=C(\OC(=O)c1ccc(C(=O)C(C)(C)C)cc1)c1ccc(C(=O)C(C)(C)C)cc1 | 2.19 |
| CC(C)(C)C(=O)c1ccc(C(=O)NC(=O)c2ccc(C(=O)C(C)(C)C)cc2)cc1 | 2.09 |
| CO/N=C(\OC(=O)c1ccc([C@@H](O)C(C)(C)C)cc1)c1ccc([C@H](O)C(C)(C)C)cc1 (relative stereo) | 3.37 |
| CC(C)(C)C(=O)c1ccc(C(=O)O/C(=N\OCC(=O)O)c2ccc(C(=O)C(C)(C)C)cc2)cc1 | 3.31 |
| CC(C)(C)C(=O)c1ccc(C2=N[C@@H](Cc3ccccc3)C(=O)O2)cc1 | 2.62 |
| CC(C)(C)C(=O)c1ccc(C(=O)N[C@@H](Cc2ccccc2)C(=O)O)cc1 | 2.98 |

---

test system: Rattus norvegicus; test: In vivo percentage efficacy, measured as ability to decrease blood glucose percentage after 8.25 days; type: functional; parameters: concentration or dose not given beside the values

| COMPOUND | Efficacy |
| --- | --- |
| COC(c1ccc(C(=O)O)cc1)C(C)(C)C (stereo unspecified) | <23% |
| CC(C)(C)C(=O)c1ccc(C(=O)N(C(=O)c2ccc(C(=O)C(C)(C)C)cc2)C(=O)c2cccnc2)cc1 | <73% |
| CC(C)(C)C1(c2ccc(C(=O)O)cc2)OCCCO1 | <41% |
| CC(C)(C)C(=O)c1ccc(C(=O)N(CC(=O)O)C(=O)c2ccc(C(=O)C(C)(C)C)cc2)cc1 | <53% |
| Cc1ccc(C2(C(C)(C)C)OCCO2)cc1 | <52% |
| CC(C)(C)C(=O)c1ccc(C(=O)NC(=O)c2ccc(F)cc2)cc1 | <57% |

---

test system: Rattus norvegicus; assay: Testes weight (treated)/body weight(treated)]/[testes weight(control)/body weight(control)] x 100 at a dose of 350 umol/kg/day; type: functional
The reader will find reported Control values listed item by item below.

| COMPOUND | Control |
| --- | --- |
| CC(C)(C)C(=O)c1ccc(C(=O)N(C(=O)c2ccc(C(=O)C(C)(C)C)cc2)C(=O)c2cccnc2)cc1 | 95% |
| CC(C)(C)[C@H](O)c1ccc(C(=O)O)cc1 | <62% |
| CC(C)(C)[C@@H](O)c1ccc(C(=O)O)cc1 | <59% |
| CC(C)(C)C(O)c1ccc(C(=O)O)cc1 (centres undefined) | <74% |

---

test: AUC was measured from the graph plotted against blood plasma concentration and time at the dose of 300 uMol/kg,; assay type: ADME
MEASUREMENT TYPE: AUC (µg·h/mL)

| ENTRY SMILES | READING UNIT | NUMERIC READOUT |
| --- | --- | --- |
| CO/N=C(\OC(=O)c1ccc(C(=O)C(C)(C)C)cc1)c1ccc(C(=O)C(C)(C)C)cc1 | µg·h/mL | 85 |
| CC(C)(C)C(=O)c1ccc(C(=O)N(CC(=O)O)C(=O)c2ccc(C(=O)C(C)(C)C)cc2)cc1 | µg·h/mL | 1080 |
| CC(C)(C)C(=O)c1ccc(C(=O)O/C(=N\OCCO)c2ccc(C(=O)C(C)(C)C)cc2)cc1 | µg·h/mL | 565 |
